# System: Jurkat
# Run description: Inhibition of anti-human CD3 epsilon-stimulated IL2 production in Jurkat E6-1 T cells
# Format: functional, cell-based
Attribute: IC50
Your answer should be a plain number; it is taken to be in nM.

CCN(CC)CCOc1ccc(Nc2ncc3c(n2)N2CCC(=O)N2C(c2c(Cl)cccc2Cl)=C3)cc1 | 3.21

Field IC50 (Jurkat), entry CN(C)c1ccc(Nc2ncc3c(n2)N2CCC(=O)N2C(c2cc(O)ccc2Cl)=C3)cc1 : 0.546

Field IC50 (Jurkat), entry CN1CCN(c2ccc(Nc3ncc4c(n3)N3CCC(=O)N3C(c3cc(O)ccc3Cl)=C4)cc2)CC1 : 2.1

Field IC50 (Jurkat), entry O=C1CCN2c3nc(Nc4ccc(N5CCOCC5)cc4)ncc3C=C(c3c(Cl)cccc3Cl)N12 : 2

* * *

# System tested: Tyrosine-protein kinase Lck (Homo sapiens, UniProt P06239)
# Sequence (P06239 whole entry): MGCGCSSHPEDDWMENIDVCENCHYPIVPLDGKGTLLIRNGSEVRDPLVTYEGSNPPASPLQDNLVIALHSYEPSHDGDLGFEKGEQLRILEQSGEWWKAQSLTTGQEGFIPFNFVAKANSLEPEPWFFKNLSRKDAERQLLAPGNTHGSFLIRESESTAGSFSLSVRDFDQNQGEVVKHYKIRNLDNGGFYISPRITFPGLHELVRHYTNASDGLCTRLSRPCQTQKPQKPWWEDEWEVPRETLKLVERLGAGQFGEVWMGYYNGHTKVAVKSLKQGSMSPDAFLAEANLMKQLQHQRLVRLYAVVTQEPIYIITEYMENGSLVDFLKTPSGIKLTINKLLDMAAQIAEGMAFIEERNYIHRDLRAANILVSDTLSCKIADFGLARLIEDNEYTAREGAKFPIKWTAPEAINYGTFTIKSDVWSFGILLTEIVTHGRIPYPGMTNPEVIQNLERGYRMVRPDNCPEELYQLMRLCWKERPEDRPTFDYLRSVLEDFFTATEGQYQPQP
# Run description: Inhibition of human recombinant Lck in presence of 10 mM ATP
# Condition context: read-out: IC50
Attribute: IC50
Your answer should be a plain number; it is taken to be in nM.

O=C1CCN2c3nc(Nc4ccc(N5CCOCC5)cc4)ncc3C=C(c3c(Cl)cccc3Cl)N12 | 3
O=C1CCN2c3nc(Nc4ccccc4)ncc3C=C(c3c(Cl)cccc3Cl)N12 | 182
CN1C(c2c(Cl)cccc2Cl)=Cc2cnc(Nc3ccc(F)cc3)nc2N1C | 3200

Now look at this entry.
# IC50 of CN(C)c1ccc(Nc2ncc3c(n2)N2CCC(=O)N2C(c2cc(O)ccc2Cl)=C3)cc1 = 10

* * *

# System tested: Proto-oncogene tyrosine-protein kinase Src (Homo sapiens)
# Sequence (P12931 2-536 limits assumed): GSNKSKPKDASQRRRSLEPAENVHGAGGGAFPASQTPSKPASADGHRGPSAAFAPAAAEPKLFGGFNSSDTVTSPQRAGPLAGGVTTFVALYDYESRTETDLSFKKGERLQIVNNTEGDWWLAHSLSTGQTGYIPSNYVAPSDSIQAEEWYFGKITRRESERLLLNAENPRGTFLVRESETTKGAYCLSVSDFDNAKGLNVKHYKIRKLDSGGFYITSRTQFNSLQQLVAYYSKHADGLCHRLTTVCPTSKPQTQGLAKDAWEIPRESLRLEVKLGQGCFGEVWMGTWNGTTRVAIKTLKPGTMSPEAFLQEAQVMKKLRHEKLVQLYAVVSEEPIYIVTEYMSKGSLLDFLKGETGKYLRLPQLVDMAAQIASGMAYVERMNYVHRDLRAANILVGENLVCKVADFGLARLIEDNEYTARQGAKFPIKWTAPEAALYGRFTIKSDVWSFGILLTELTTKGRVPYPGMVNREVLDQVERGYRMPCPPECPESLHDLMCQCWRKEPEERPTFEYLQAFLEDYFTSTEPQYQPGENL
# Run description: Inhibition of human recombinant Src in presence of 10 mM ATP
Result type: pIC50
As a rule, pIC50 stands for the negative log10 of the concentration, concentration in M.

# annotated cases, reported pIC50 shown
CN(C)c1ccc(Nc2ncc3c(n2)N2CCC(=O)N2C(c2cc(O)ccc2Cl)=C3)cc1 | 6.56
CN1CCN(c2ccc(Nc3ncc4c(n3)N3CCC(=O)N3C(c3cc(O)ccc3Cl)=C4)cc2)CC1 | 6.12
CCN(CC)CCOc1ccc(Nc2ncc3c(n2)N2CCC(=O)N2C(c2c(Cl)cccc2Cl)=C3)cc1 | 8.52

Now look at this entry.
# pIC50 of O=C1CCN2c3nc(Nc4ccc(N5CCOCC5)cc4)ncc3C=C(c3c(Cl)cccc3Cl)N12 = 6.98

* * *

# Run description: Metabolic stability in Sprague-Dawley rat liver microsome after 1 hr
# Assay type: ADME
# Condition context: liver microsomes, read-out: Stability
Result type: remaining at 1 h

# remaining at 1 h of CCN(CC)CCOc1ccc(Nc2ncc3c(n2)N2CCC(=O)N2C(c2c(Cl)cccc2Cl)=C3)cc1 = > 84%

* * *

# System tested: Tyrosine-protein kinase Lck (Homo sapiens)
# Run description: Inhibition of human recombinant Lck in presence of 10 mM ATP
# Condition context: read-out: IC50
Attribute: pIC50
As a rule, pIC50 stands for the negative log10 of the concentration, concentration in M.

# annotated cases, reported pIC50 shown
CN(C)CCc1ccc(Nc2ncc3c(n2)N2CCC(=O)N2C(c2c(Cl)cccc2Cl)=C3)cc1 | 7.68
O=C1CCN2c3nc(Nc4ccc(F)cc4)ncc3C=C(c3c(Cl)cccc3Cl)N12 | 6.91
CN1CCN(c2ccc(Nc3ncc4c(n3)N3CCC(=O)N3C(c3cc(O)ccc3Cl)=C4)cc2)CC1 | 7.33
CCOc1ccc(Nc2ncc3c(n2)N2CCC(=O)N2C(c2c(Cl)cccc2Cl)=C3)cc1 | 6.55

Now look at this entry.
# pIC50 of COc1ccc(Cl)c(C2=Cc3cnc(Nc4ccc(N(C)C)cc4)nc3N3CCC(=O)N23)c1 = 5.55
